TARGET OR SYSTEM: Bile salt export pump (Homo sapiens)
Sequence (O95342 whole entry): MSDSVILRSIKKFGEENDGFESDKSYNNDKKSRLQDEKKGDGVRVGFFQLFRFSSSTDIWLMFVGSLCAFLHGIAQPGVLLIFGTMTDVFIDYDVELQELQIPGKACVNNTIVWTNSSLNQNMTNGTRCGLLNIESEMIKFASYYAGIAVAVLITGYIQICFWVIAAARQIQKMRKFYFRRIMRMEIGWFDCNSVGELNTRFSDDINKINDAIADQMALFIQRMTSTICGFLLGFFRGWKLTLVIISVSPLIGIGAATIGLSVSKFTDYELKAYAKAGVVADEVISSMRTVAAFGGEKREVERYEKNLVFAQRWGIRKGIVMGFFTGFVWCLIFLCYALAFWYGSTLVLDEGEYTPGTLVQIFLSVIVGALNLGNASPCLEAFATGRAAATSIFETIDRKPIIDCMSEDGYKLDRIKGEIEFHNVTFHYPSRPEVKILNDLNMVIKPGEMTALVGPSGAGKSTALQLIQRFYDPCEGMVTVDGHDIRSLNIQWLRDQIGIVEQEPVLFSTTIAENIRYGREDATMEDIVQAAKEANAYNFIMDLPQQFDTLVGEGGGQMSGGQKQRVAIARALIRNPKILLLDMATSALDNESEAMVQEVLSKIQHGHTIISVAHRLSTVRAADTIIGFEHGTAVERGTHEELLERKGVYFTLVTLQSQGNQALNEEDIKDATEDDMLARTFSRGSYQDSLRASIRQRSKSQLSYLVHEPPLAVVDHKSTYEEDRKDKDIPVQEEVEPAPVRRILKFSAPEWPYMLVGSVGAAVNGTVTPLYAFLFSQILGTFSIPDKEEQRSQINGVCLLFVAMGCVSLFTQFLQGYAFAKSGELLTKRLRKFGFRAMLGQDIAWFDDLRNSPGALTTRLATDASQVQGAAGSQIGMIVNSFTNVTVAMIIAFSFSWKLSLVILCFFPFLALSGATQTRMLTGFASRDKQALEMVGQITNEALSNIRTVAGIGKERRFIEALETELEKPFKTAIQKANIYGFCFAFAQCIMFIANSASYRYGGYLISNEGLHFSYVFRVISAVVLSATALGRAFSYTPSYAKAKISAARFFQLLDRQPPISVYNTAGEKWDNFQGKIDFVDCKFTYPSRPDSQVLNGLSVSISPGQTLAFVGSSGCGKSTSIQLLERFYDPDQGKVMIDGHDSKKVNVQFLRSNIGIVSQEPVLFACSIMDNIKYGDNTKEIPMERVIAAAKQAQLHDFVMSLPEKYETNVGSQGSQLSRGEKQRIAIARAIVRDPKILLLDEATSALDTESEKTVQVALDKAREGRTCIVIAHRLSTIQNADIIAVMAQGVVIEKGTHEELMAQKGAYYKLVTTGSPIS
TEST DESCRIPTION: Inhibition of human BSEP overexpressed in Sf9 cell membrane vesicles assessed as uptake of [3H]-taurocholate in presence of ATP measured after 15 to 20 mins by membrane vesicle transport assay
pIC50: −log10 of the molar value. Where a name gives a salt, the structure may show the parent alone.
OUTCOME MEASURE: pIC50

compound=CNS(=O)(=O)Cc1ccc2[nH]cc(CCN(C)C)c2c1 result="< 3.88"
compound=O=NN(CCCl)C(=O)NCCCl result="< 3.88"
compound=C/C(=C\C(=O)OCCCCCCCCC(=O)O)C[C@@H]1OC[C@H](C[C@@H]2O[C@H]2[C@@H](C)[C@H](C)O)[C@@H](O)[C@H]1O result="< 3.88"
compound=Clc1cccc(N2CCNCC2)c1 result="< 3.88"
compound="CC(=O)O[C@]1(C(C)=O)CC[C@H]2[C@@H]3C[C@H](C)C4=CC(=O)CC[C@]4(C)[C@H]3CC[C@@]21C [MEDROXYPROGESTERONE ACETATE]" result=4.80
compound="Nc1cccc2c1CN(C1CCC(=O)NC1=O)C2=O (stereo not drawn) [LENALIDOMIDE]" result="< 3.88"
compound="CNCC[C@@H](Oc1ccccc1C)c1ccccc1 [ATOMOXETINE HYDROCHLORIDE]" result="< 3.88"
compound=CSc1ccc(C(=O)c2[nH]c(=O)[nH]c2C)cc1 result="< 3.88"
compound=Cc1cc2c(cc1CC(=O)c1sccc1S(=O)(=O)Nc1onc(C)c1Cl)OCO2 result=4.90
compound="CCCc1nn(C)c2c(=O)[nH]c(-c3cc(S(=O)(=O)N4CCN(C)CC4)ccc3OCC)nc12 [SILDENAFIL CITRATE]" result=3.88
compound="CS(=O)(=O)Nc1ccc([N+](=O)[O-])cc1Oc1ccccc1 [NIMESULIDE]" result="< 3.88"
compound="CC1(C)O[C@@H]2C[C@H]3[C@@H]4C[C@H](F)C5=CC(=O)C=C[C@]5(C)[C@H]4[C@@H](O)C[C@]3(C)[C@]2(C(=O)CO)O1 [FLUNISOLIDE]" result="< 3.88"
compound=Cc1ccc(C(=O)c2cc(O)c(O)c([N+](=O)[O-])c2)cc1 result=4.44
compound=Nc1ncn([C@H]2C[C@H](O)[C@@H](CO)O2)c(=O)n1 result="< 3.88"
compound=Cc1cn([C@H]2C=C[C@@H](CO)O2)c(=O)[nH]c1=O result="< 3.88"
compound=Cl.OCCN1CCN(CCCN2c3ccccc3Sc3ccc(C(F)(F)F)cc32)CC1 result=4.06
compound="NCc1ccc(S(N)(=O)=O)cc1 [MAFENIDE ACETATE]" result="< 3.88"
compound=CN(C)CCc1c[nH]c2ccc(C[C@H]3COC(=O)N3)cc12 result="< 3.88"
compound="CCCCCC[C@H]1C(=O)O[C@H](C)[C@H](NC(=O)c2cccc(NC=O)c2O)C(=O)O[C@@H](C)[C@@H]1OC(=O)CC(C)C [ANTIMYCIN A]" result=4.22
compound=NC(=O)c1ncn([C@@H]2O[C@H](CO)[C@@H](O)[C@H]2O)c1O result="< 3.88"
compound=CC[C@@H]1/C=C(\C)C[C@H](C)C[C@H](OC)[C@H]2O[C@@](O)(C(=O)C(=O)N3CCCC[C@H]3C(=O)O[C@H](/C(C)=C/[C@@H]3CC[C@H](Cl)[C@H](OC)C3)[C@H](C)[C@@H](O)CC1=O)[C@H](C)C[C@@H]2OC result=5.00
compound=CC(C)(S)[C@@H](N)C(=O)O result="< 3.88"
compound="COc1cc([C@@H]2c3cc4c(cc3[C@@H](O[C@@H]3O[C@@H]5CO[C@@H](C)O[C@H]5[C@H](O)[C@H]3O)[C@H]3COC(=O)[C@H]23)OCO4)cc(OC)c1OP(=O)(O)O [ETOPOSIDE PHOSPHATE]" result="< 3.88"
compound="Clc1ccc(CO/N=C(\\Cn2ccnc2)c2ccc(Cl)cc2Cl)c(Cl)c1 [OXICONAZOLE NITRATE]" result=4.31
compound=Nc1nnc(-c2cccc(Cl)c2Cl)c(N)n1 result="< 3.88"
compound="ClC(Cl)(Cl)Cl [CARBON TETRACHLORIDE]" result="< 3.88"
compound=Cc1ccc(C)c(OCCCC(C)(C)C(=O)O)c1 result="< 3.88"
compound="CN(CCOc1ccc(CC2SC(=O)NC2=O)cc1)c1ccccn1 (stereo not drawn)" result=5.55
compound="CN1CCN(C(=O)OC2c3nccnc3C(=O)N2c2ccc(Cl)cn2)CC1 (stereo not drawn)" result="< 3.88"
compound="CC(C)[C@H]1CC[C@H](C(=O)N[C@H](Cc2ccccc2)C(=O)O)CC1 [NATEGLINIDE]" result="< 3.88"
compound=O=C(O)COC(=O)Cc1ccccc1Nc1c(Cl)cccc1Cl result=3.98
compound="CCC1(c2ccc(N)cc2)CCC(=O)NC1=O (stereo not drawn) [AMINOGLUTETHIMIDE]" result="< 3.88"
compound=C#C[C@]1(O)C=C[C@H]2[C@@H]3CCC4=CC(=O)CC[C@@H]4[C@H]3CC[C@@]21CC result="< 3.88"
